target: Glutamate NMDA receptor; GRIN1/GRIN2A (Homo sapiens, UniProt Q05586+Q12879); assay: Inhibition of recombinant wild type human GluN1/GluN2A receptor expressed in HEK293 cells assessed as reduction in glutamate induced current at -40 mV holding potential by electrophysiology assay; format: cell-based
Sequence (Q12879 whole entry, other chains not shown): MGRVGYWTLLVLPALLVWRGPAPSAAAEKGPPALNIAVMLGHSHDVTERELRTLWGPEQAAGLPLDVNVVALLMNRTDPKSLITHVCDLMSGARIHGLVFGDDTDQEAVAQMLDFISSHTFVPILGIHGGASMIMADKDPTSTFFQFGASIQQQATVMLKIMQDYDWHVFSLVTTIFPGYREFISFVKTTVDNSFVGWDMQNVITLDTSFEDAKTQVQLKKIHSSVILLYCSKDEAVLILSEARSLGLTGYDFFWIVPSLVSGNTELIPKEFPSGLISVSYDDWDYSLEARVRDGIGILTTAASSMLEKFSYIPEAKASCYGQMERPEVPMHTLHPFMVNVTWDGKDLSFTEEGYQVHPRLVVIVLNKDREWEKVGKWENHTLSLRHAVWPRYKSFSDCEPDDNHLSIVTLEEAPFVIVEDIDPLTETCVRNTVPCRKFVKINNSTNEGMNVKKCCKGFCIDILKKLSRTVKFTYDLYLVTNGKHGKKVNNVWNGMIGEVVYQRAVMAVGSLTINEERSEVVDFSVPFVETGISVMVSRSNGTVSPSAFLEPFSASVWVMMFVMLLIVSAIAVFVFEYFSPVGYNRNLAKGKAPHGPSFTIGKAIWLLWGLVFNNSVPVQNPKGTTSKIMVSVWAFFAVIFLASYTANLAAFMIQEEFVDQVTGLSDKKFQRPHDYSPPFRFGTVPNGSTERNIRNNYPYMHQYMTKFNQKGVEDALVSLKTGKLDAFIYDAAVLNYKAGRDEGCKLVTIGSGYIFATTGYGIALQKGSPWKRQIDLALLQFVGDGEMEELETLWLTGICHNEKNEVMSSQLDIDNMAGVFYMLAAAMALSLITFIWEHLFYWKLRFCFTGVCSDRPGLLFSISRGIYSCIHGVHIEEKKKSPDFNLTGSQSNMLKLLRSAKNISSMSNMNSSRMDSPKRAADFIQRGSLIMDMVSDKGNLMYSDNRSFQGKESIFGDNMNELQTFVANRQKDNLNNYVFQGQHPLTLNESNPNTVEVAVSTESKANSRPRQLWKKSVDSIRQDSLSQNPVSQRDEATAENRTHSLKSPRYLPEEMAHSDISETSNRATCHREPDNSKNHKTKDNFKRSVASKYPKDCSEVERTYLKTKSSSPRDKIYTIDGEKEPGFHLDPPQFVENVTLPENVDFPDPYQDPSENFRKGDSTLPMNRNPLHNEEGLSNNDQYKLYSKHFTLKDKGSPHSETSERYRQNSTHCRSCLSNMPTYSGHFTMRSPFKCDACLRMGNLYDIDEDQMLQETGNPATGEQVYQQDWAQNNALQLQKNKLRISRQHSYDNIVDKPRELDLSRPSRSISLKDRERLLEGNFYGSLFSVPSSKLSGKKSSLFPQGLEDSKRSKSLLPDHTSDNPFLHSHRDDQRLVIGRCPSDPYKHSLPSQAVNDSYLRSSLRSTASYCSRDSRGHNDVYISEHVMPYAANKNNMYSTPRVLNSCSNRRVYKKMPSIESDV
PARAMETER: IC50
Record the result as a number with its unit.

Exercise: Consider the compound shown here: `COc1ccccc1Oc1ccc2nc3c(c(N)c2c1)CCCC3.Cl` What is its recorded IC50?
Solution: 43.8 µM

----------
assay: in vitro; settings: human, liver microsomes
Description: Metabolic stability in human liver microsomes assessed as intrinsic clearance at 3 uM measured upto 45 min in presence of NADPH regenerating system by LC-MS analysis
Measured microsomal CLint at 0.75 h, 3 µM values are reported for all entries that follow.
Respond numerically; units are µL/min/mg and should not be typed.

| COMPOUND SMILES | UNIT | microsomal CLint at 0.75 h, 3 µM |
| --- | --- | --- |
| COc1ccccc1Oc1ccc2nc3c(c(N)c2c1)CCCC3.Cl | µL/min/mg | 8.61 |

Now consider a different compound.
Exercise: Consider the compound shown here: `COc1ccccc1Oc1ccc2nc3c(c(N)c2c1)CCC3.Cl` What is its recorded microsomal CLint at 0.75 h, 3 µM?
Solution: 20
